# ASSAYED TARGET: GST-human KRas166 (G12V) GPPNHP (Homo sapiens, UniProt P01116, G12V)
# MEASUREMENT PROTOCOL: KRas small-molecule screening by SPR (BIACORE T200)
# Format: binding
# Parameters: made in house; host or cells: E. coli C41(DE3); key: SPR response units (RU)
# CONDITION SUMMARY: compounds at final concentration of 100 uM; immobilised KRAS166 (G12V) GPPNHP; no unit printed (method speaks of response units)
PARAMETER: SPR

COc1cccc(-c2ccc(Nc3cc(C)cc(C)c3)cc2)c1 [Example 9] | 28
COc1cc(-c2ccc(Nc3ccc(CN(C)C)cc3)cc2)ccc1F [Example 4] | 80

P. COc1cccc(-c2ccc(Nc3cccc(CN(C)C)c3)c(OC)n2)c1 [Example 15]
Q. COc1cccc(-c2ccc(Nc3ccc(C(=O)NCC4CCN(C)CC4)cc3)cc2)c1 [Example 21]
R. COc1cccc(-c2ccc(Nc3cc(C)cc(C)c3)c(OC)c2F)c1 [Example 8]
S. COc1cc(C)cc(-c2ccc(Nc3ccc(CN(C)C)cc3)cc2)c1 [Example 7]
**Query** List items by SPR in falling order. Labels, requested order.
**Result** Q, S, P, R
(Q: 1583, S: 264, P: 84, R: 30)

a. COc1cccc(-c2ccc(Nc3ccc(CN(C)C)cc3)cn2)c1 [Example 16]
b. COc1cccc(-c2ccc(Nc3ccc(C(=O)NCC4CCN(Cc5ccccc5)CC4)cc3)cc2)c1 [Example 23]
**Query** Could you point out whether the larger SPR belongs to a or to b ? // return label of chosen record
**Result** a

Where do these numbers come from? They come from patent US11970469B2.
